Could you please report measured pKd for the items listed next?
Biological target: LmFPPS (Leishmania major)
Sequence (Q4QBL1 1-362): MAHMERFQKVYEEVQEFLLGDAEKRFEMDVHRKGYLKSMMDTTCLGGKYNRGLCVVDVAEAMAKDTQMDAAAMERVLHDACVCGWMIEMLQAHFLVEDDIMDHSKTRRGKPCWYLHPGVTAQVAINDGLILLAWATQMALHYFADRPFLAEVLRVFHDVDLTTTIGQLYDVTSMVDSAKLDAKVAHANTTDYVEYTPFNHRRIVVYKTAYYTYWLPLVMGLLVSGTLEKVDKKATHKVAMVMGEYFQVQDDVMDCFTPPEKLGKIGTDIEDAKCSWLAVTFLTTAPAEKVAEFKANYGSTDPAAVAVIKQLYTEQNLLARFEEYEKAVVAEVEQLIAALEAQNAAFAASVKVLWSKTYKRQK
Assay: SPR, steady-state affinity, protein immobilized on CM5 chip
Format: binding
Numbers only, as −log10 of the molar value.

>  <cpd smiles>
CC(C)=CCC/C(C)=C/CC/C(C)=C/CO[P@@](=O)(O)OP(=O)(O)O

>  <recorded value>
4.44

$$$$

INPUT: Look up pKd of "CC(C)=CCC/C(C)=C/COP(=O)(O)OP(=O)(O)O" and report it.
OUTPUT: 7.31
